Catalogue of compounds with associated %Inh
- Test system: TNK2
- particulars: concentration: 1 μM, replicates: in singlicate; n = 1;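 note: KINOMEscan kinase panel screen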
The reply should be a number in %, with the unit left off.

Solved entries (count: 5):
CC(C)c1nc(-c2cccc(NS(=O)(=O)c3c(F)cccc3F)c2)c(-c2ccnc(Nc3ccc(N4CCOCC4)nc3)n2)s1.Cl [GSK1723980] | 98.5
Cc1ccc(NC(=O)c2ccc(Cl)c(Cl)c2)cc1-c1ccc(C(=O)Nc2ccncc2)cc1 [GSK1398460] | 19
O=C(Nc1n[nH]c2nc(-c3ccccc3O)ccc12)C1CC1 [SB-711880] | 0
COC(=O)Nc1nc2ccc(Oc3ccc(NC(=O)Nc4cc(C(F)(F)F)ccc4F)cc3)cc2[nH]1.Cl [GW654607] | 12
Cc1ccc(O)cc1Nc1ccnc2ccc(C(C)(C)C)cc12 [GW856805] | 13

Lookup result for Cn1cc(-c2ccc3c(c2)CCN3C(=O)Cc2cc(F)cc(C(F)(F)F)c2)c2c(N)ncnc21 [GSK2635225] ; measured %Inh: 2

Lookup result for Cc1nn2c(=O)cc(N3CCO[C@H](C)C3)nc2n1Cc1cccc(Cl)c1Cl [GSK2373693] ; measured %Inh: 10

Lookup result for c1ccc(Oc2ccc(Nc3ccnc4cc(-c5ccc(CN6CCCCC6)o5)ccc34)cc2)nc1 [GW567143] ; measured %Inh: 36

====

- Test system: EPHB1
- particulars: concentration: 1 μM, replicates: in singlicate; n = 1
attribute-measured: %Inh (%)
The reply should be a number in %, with the unit left off.

Solved entries (count: 4):
O=C(Nc1n[nH]c2nc(-c3cccc(O)c3)ccc12)C1CC1 | 14
Cc1ccc(O)cc1Nc1ccnc2cc(-c3ccc(CN4CCCCC4)o3)ccc12 | 100
COc1ccc(NC(=O)c2ccoc2)cc1-c1ccc(C(=O)NCC2CC2)cc1 | 4
Cl.Cl.NCC(NC(=O)c1cc(-c2cccnc2)c(-c2ccnc3[nH]ccc23)s1)c1ccccc1 (centres unmarked) | 23

Lookup result for "COc1cccc(C2=C(Nc3cccc(O)c3)C(=O)NC2=O)c1" ; measured %Inh: 11

====

- Tested on: MST2
- Construct: gene STK3
- particulars: concentration: 1 μM, replicates: in singlicate; n = 1
Hi! Just check whether %Inh is below 9%. Below gives Fulfilled, equal or above gives Not fulfilled.

O=C(Nc1n[nH]c2cc(-c3cccs3)ccc12)C1CC1 [SB-731284] | Fulfilled

Ask: Quick check: %Inh of COc1cccc(-c2nc(-c3ccccc3)[nH]c2-c2ccncc2)c1 [SB-610250] under 9%?
Reply: Fulfilled

Ask: Quick check: %Inh of O=C(O)C(F)(F)F.O=c1[nH]ccc2nc(N[C@@H]3CCNC3)nc(Nc3ccc4c(c3)S(=O)(=O)CC4)c12 [GSK2181306] under 9%?
Reply: Not fulfilled

Ask: Quick check: %Inh of Cc1ccc(O)cc1Nc1ccnc2ccc(C(C)(C)C)cc12 [GW856805] under 9%?
Reply: Not fulfilled

Ask: Quick check: %Inh of COc1cccc(C2=C(Nc3cccc(O)c3)C(=O)NC2=O)c1 [SB-390771] under 9%?
Reply: Not fulfilled

Ask: Quick check: %Inh of COC(=O)Nc1nc2cc(Oc3ccc(NC(=O)Nc4cccc(SC)c4)cc3)ccc2[nH]1.Cl [GW697999] under 9%?
Reply: Fulfilled

Ask: Quick check: %Inh of Cc1ccc(C)c(NC(=O)Nc2ccc(C)c(-c3ccc(C(=O)Nc4ccncc4)cc3)c2)c1 [GSK1398473] under 9%?
Reply: Not fulfilled

Ask: Quick check: %Inh of c1ccc(Oc2ccc(Nc3ccnc4cc(-c5ccc(CN6CCCCC6)o5)ccc34)cc2)nc1 [GW567143] under 9%?
Reply: Fulfilled

Ask: Quick check: %Inh of CN1CCN(Cc2ccc(NC(=O)Nc3ccc(N(C)c4ccnc(Nc5ccc(CS(C)(=O)=O)cc5)n4)cc3)cc2)CC1.Cl [GW827654] under 9%?
Reply: Not fulfilled

====

- System: YANK3
- Construct: gene STK32C
- particulars: concentration: 1 μM, replicates: in singlicate; n = 1
attribute-measured: %Inh (%)
The reply should be a number in %, with the unit left off.

Solved entries (count: 3):
Nc1ncc(-c2ccc3nccc(-c4ccncc4)c3c2)cc1S(=O)(=O)N1CCCCC1 | 0
Cc1ccc(NC(=O)c2ccnc(N3CCCCC3)c2)cc1-c1ccc(C(=O)NCC2CC2)cc1 | 0
O=C(Nc1n[nH]c2cc(-c3cccs3)ccc12)C1CC1 | 0

Lookup result for "Cc1ccc(O)cc1Nc1ccnc2ccc(C(C)(C)C)cc12" ; measured %Inh: 45

====

Catalogue of compounds with associated %Inh
- System: MKK7
- particulars: concentration: 1 μM, replicates: in singlicate; n = 1
The reply should be a number in %, with the unit left off.

Solved entries (count: 8):
Cc1ccc(NC(=O)c2ccnc(N3CCCCC3)c2)cc1-c1ccc(C(=O)NCC2CC2)cc1 [GW775610] | 0
Cl.O=C(Nc1ccc(Oc2ccc3[nH]c(NC(=O)c4ccco4)nc3c2)cc1)Nc1cc(C(F)(F)F)ccc1F [GW683134] | 0
N#CC1(c2cccc(C(=O)Nc3cccc(Oc4ccc5nc(NC(=O)C6CC6)sc5n4)c3)c2)CC1 | 0
COc1cc(Nc2nccc(N3CCC(NS(=O)(=O)c4ccc(NC(C)=O)cc4)CC3)n2)cc(OC)c1OC [GSK1379825] | 15
CCn1cnc2c(NCc3ccccc3)ncnc21 [SKF-96418] | 17
Cc1ccc(NC(=O)c2ccc(Cl)c(Cl)c2)cc1-c1ccc(C(=O)Nc2ccncc2)cc1 [GSK1398460] | 0
O=C(O)C(F)(F)F.O=c1[nH]ccc2nc(N[C@@H]3CCNC3)nc(Nc3ccc4c(c3)S(=O)(=O)CC4)c12 [GSK2181306] | 0
COc1ccc(C2=C(Nc3cccc(O)c3)C(=O)NC2=O)cc1 [SB-390766] | 73

Lookup result for O=C(O)C(F)(F)F.O=c1[nH]ccc2nc(N[C@@H]3CCNC3)nc(Nc3cc(Cl)cc(Cl)c3)c12 [GSK2188764] ; measured %Inh: 20

Lookup result for NCCC(NC(=O)c1cc(Br)c(-c2ccnc3[nH]ccc23)s1)c1ccccc1.O=C(O)C(F)(F)F.O=C(O)C(F)(F)F (stereo not shown) [GSK1307810] ; measured %Inh: 18

Lookup result for "CS(=O)(=O)c1cccc(CNc2nc(Nc3ccc4c(c3)CCC(=O)N4)ncc2C(F)(F)F)c1" ; measured %Inh: 0

Lookup result for Cc1ccc(NC(=O)c2cccc(N3CCCCC3)c2)cc1-c1ccc(C(=O)NCC2CC2)cc1 [GSK1917008] ; measured %Inh: 0

Lookup result for Cc1ccc(C)c(NC(=O)Nc2ccc(C)c(-c3ccc(C(=O)Nc4ccncc4)cc3)c2)c1 [GSK1398473] ; measured %Inh: 0

Lookup result for O=C(Nc1n[nH]c2nc(-c3ccccc3)ccc12)C1CC1 [SB-708999] ; measured %Inh: 31

Lookup result for CC(C)c1nc(-c2ccc(F)c(NS(=O)(=O)c3c(F)cccc3F)c2)c(-c2ccnc(Nc3ccc(N4CCOCC4)nc3)n2)s1 [GSK1804250] ; measured %Inh: 15

Lookup result for Cl.Cl.NCC(NC(=O)c1cc(-c2cccnc2)c(-c2ccnc3[nH]ccc23)s1)c1ccccc1 (stereo not shown) [GSK1323434] ; measured %Inh: 0

====

- System: PCTK2
- Construct: gene CDK17
- particulars: concentration: 1 μM, replicates: in singlicate; n = 1
Catalogue of compounds with associated %Inh

Solved entries (count: 3):
CN(c1ccc(NC(=O)N2CCN(CCCN3CCOCC3)CC2)cc1)c1ccnc(Nc2ccc(CS(C)(=O)=O)cc2)n1.Cl | 10%
COc1cccc2c(-c3ccncc3)c(-c3ccc(F)cc3)nn12 | 11%
CN(C)CCOc1ccc(-c2cc(-c3ccc(Cl)c(O)c3)c(-c3ccncc3)[nH]2)cc1.Cl.Cl | 13%

Lookup result for "COc1cccc(C2=C(Nc3cccc(O)c3)C(=O)NC2=O)c1" ; measured %Inh: 0%

Lookup result for "CN(C)c1ncnc2nc[nH]c12" ; measured %Inh: 0%

Lookup result for "COc1cccc(NC(=O)NCCNc2ccnc(Nc3ccc(F)cc3)n2)c1" ; measured %Inh: 0%

Lookup result for "COc1cccc(-c2nc(-c3ccccc3)[nH]c2-c2ccncc2)c1" ; measured %Inh: 0%

====

Catalogue of compounds with associated %Inh
- Tested on: CDKL2
- particulars: concentration: 1 μM, replicates: in singlicate; n = 1
The reply should be a number in %, with the unit left off.

Solved entries (count: 3):
Cc1ccc(-c2ccc3occ(-c4ccc(S(C)=O)cc4)c3c2)nn1 (centres unmarked) | 0
O=C1NC(=O)C(c2ccccc2Cl)=C1Nc1cccc(Cl)c1 [SB-342409] | 11
COc1cc(Nc2ccnc3cc(-c4ccncc4)ccc23)cc(OC)c1OC.Cl [GW494610] | 8

Lookup result for Cl.Cl.NC(CNC(=O)c1cc(Br)c(-c2ccnc3[nH]ccc23)s1)c1ccccc1 (centres unmarked) [GSK1322949] ; measured %Inh: 26

Lookup result for O=C(O)C(F)(F)F.O=c1[nH]ccc2nc(N[C@@H]3CCNC3)nc(Nc3cc(Cl)cc(Cl)c3)c12 [GSK2188764] ; measured %Inh: 24

Entry source: paper PMC5540273
